Attribution: ChEMBL document CHEMBL4007508

- SYSTEM_UNDER_TEST: hERG (KCNH2) (Homo sapiens)
- Sequence (Q12809 whole entry): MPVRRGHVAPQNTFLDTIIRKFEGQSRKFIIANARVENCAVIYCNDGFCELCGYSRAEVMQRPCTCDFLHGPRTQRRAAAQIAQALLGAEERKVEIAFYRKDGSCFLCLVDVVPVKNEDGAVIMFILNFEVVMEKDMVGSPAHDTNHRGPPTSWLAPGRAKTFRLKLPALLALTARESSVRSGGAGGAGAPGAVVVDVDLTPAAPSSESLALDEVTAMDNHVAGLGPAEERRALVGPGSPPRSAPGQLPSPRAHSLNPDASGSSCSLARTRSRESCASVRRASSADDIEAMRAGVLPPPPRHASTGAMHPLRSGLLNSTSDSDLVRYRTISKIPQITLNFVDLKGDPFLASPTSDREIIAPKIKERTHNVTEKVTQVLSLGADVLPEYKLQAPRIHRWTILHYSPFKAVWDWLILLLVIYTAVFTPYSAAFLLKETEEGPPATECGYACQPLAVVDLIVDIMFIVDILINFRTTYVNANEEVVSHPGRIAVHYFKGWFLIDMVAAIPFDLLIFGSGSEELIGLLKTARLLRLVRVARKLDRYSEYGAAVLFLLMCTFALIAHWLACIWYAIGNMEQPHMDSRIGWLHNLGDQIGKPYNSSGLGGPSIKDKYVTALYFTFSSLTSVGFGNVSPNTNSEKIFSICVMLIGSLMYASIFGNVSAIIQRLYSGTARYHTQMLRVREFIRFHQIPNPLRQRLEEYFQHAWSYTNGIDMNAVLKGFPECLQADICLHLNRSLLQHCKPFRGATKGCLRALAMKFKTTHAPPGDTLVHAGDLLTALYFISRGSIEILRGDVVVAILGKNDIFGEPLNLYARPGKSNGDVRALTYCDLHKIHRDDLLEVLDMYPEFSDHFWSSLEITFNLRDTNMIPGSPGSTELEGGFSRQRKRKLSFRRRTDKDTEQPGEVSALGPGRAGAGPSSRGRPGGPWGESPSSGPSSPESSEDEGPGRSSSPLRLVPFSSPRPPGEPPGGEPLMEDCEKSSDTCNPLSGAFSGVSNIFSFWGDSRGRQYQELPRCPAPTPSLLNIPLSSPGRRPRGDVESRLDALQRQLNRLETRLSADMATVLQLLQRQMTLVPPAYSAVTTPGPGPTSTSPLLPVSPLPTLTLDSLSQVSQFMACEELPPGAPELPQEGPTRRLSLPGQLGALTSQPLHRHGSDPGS
- PROCEDURE_DETAILS: Inhibition of human ERG
READOUT: IC20

Item COC(=O)C1=C(CN2CCOC[C@H]2C(=O)O)N=C(c2nccs2)N[C@H]1c1ccc(F)cc1Cl has what recorded IC20? > 10 µM

---

Could you please report measured solubility for the items listed next?
- PROCEDURE_DETAILS: Solubility of compound in phosphate buffer at pH 6.5 after one night incubation by HPLC-UV method
- Format: physicochemical

Below, each entry is followed by its recorded solubility result.
| COMPOUND | solubility |
| --- | --- |
| COC(=O)C1=C(CN2CCOCC2CO)NC(c2nccs2)=N[C@H]1c1ccc(F)cc1Cl (stereo partly specified) | 475 µg/mL |
| COC(=O)C1=C(CN2CCOC[C@H]2CCC(=O)O)NC(c2nccs2)=N[C@H]1c1ccc(F)cc1Cl | > 697 µg/mL |
| COC(=O)C1=C(CN2CCOC[C@H]2CC(=O)O)NC(c2nccs2)=N[C@H]1c1ccc(F)cc1Cl | > 638 µg/mL |
| COC(=O)C1=C(CN2CCOC[C@H]2CNS(C)(=O)=O)NC(c2nccs2)=N[C@H]1c1ccc(F)cc1Cl | 48 µg/mL |
| COC(=O)C1=C(CN2CCO[C@H](C)[C@H]2C(=O)O)NC(c2nccs2)=N[C@H]1c1ccc(F)cc1Cl | > 667 µg/mL |

Using the record for COC(=O)C1=C(CN2CCOC[C@H]2C(=O)O)NC(c2nccs2)=N[C@H]1c1ccc(F)c(F)c1C , report its solubility. > 604 µg/mL
